tested on: Echinochloa oryzicola; assay: Herbicidal activity against Echinochloa oryzicola assessed as induction of crop damage after 28 days post compound application; type: functional
# ED20 values compiled below

Field: example entries. Status: answers known.
compound="COc1cc(OC)nc(C(O)c2ccccc2NS(=O)(=O)CF)n1 (centres undefined)" measured="63 gAi/ha"
compound="COc1cc(OC)nc(C(O)c2c(Cl)cccc2NS(=O)(=O)C(F)F)n1 (centres undefined)" measured=">1000 gAi/ha"
compound="COc1cc(OC)nc(C(OC)c2ccccc2NS(=O)(=O)C(F)(F)F)n1 (centres undefined)" measured="63 gAi/ha"
compound="COc1cc(OC)nc(C(O)c2ccccc2NS(=O)(=O)C(F)(F)F)n1 (centres undefined)" measured="1000 gAi/ha"
compound="COc1cc(OC)nc(C(O[Si](C)(C)C)c2ccccc2NS(=O)(=O)C(F)(F)F)n1 (centres undefined)" measured="1000 gAi/ha"
compound="COc1cc(OC)nc(C(O)c2ccccc2NS(=O)(=O)C(C)C)n1 (centres undefined)" measured=">1000 gAi/ha"
compound=COc1cc(OC)nc(C(=O)c2ccccc2NS(=O)(=O)C(F)(F)F)n1 measured="1000 gAi/ha"
compound="CCCc1cccc(C(O)c2nc(OC)cc(OC)n2)c1NS(=O)(=O)C(F)F (centres undefined)" measured="16 gAi/ha"

Please report the recorded ED20 for COc1cc(OC)nc(C(O)c2cccc(F)c2NS(=O)(=O)C(F)F)n1 (centres undefined) . 250 gAi/ha

Please report the recorded ED20 for COc1cc(OC)nc(C(O)c2ccccc2NS(=O)(=O)CC#N)n1 (centres undefined) . 1000 gAi/ha

Please report the recorded ED20 for COc1cc(OC)nc(C(O)c2cccc(C)c2NS(=O)(=O)C(F)F)n1 (centres undefined) . 16 gAi/ha

Please report the recorded ED20 for COc1cc(OC)nc(C(O)c2cccc(Oc3ccccc3)c2NS(=O)(=O)C(F)F)n1 (centres undefined) . >1000 gAi/ha

Please report the recorded ED20 for COc1cc(OC)nc(C(Cl)c2ccccc2NS(=O)(=O)C(F)(F)F)n1 (centres undefined) . 1000 gAi/ha

Please report the recorded ED20 for CCc1cccc(C(O)c2nc(OC)cc(OC)n2)c1NS(=O)(=O)C(F)F (centres undefined) . 16 gAi/ha

Please report the recorded ED20 for COc1cc(OC)nc(C(c2ccccc2NS(=O)(=O)C(F)(F)F)N(C)C)n1 (centres undefined) . >1000 gAi/ha

Please report the recorded ED20 for C/C=N/OC(c1nc(OC)cc(OC)n1)c1ccccc1NS(=O)(=O)C(F)(F)F (centres undefined) . 1000 gAi/ha

Please report the recorded ED20 for COc1ccc(NS(=O)(=O)C(F)F)c(C(O)c2nc(OC)cc(OC)n2)c1 (centres undefined) . >1000 gAi/ha

Please report the recorded ED20 for COc1cc(OC)nc(C(O)c2c(F)cccc2NS(=O)(=O)C(F)F)n1 (centres undefined) . 63 gAi/ha

Please report the recorded ED20 for COc1ccc(C(O)c2nc(OC)cc(OC)n2)c(NS(=O)(=O)C(F)F)c1 (centres undefined) . 16 gAi/ha

Please report the recorded ED20 for COc1cc(OC)nc(C(O)c2ccc(C)cc2NS(=O)(=O)C(F)F)n1 (centres undefined) . 1000 gAi/ha

Please report the recorded ED20 for CCOc1cccc(C(O)c2nc(OC)cc(OC)n2)c1NS(=O)(=O)C(F)F (centres undefined) . 63 gAi/ha

Please report the recorded ED20 for COCc1cccc(C(O)c2nc(OC)cc(OC)n2)c1NS(=O)(=O)C(F)F (centres undefined) . 16 gAi/ha

Please report the recorded ED20 for CCCOc1cccc(C(O)c2nc(OC)cc(OC)n2)c1NS(=O)(=O)C(F)F (centres undefined) . 250 gAi/ha

Please report the recorded ED20 for COc1cc(OC)nc(C(S)c2ccccc2NS(=O)(=O)C(F)(F)F)n1 (centres undefined) . >1000 gAi/ha
